So I've got a bunch of binders here, and I need their Neutralizing activity (%) Mean at 1.851852 µg/ml values.
Biological target: full length spike (S) protein of SARS-CoV-2 (SARS-CoV-2, UniProt P0DTC2 14-1273)
Assay: cell-based or functional assay
Give a bare numeral; the unit % is implied.

Entry P2B-2G4 (antibody, V domains shown) VH: QVQLVESGGGVVQPGRSLRLSCAASGFTFSSYGMHWVRQAPGKGLEWVAVIWYDGSNKYYADSVKGRFTISRDNSKNTLYLQMNSLRAEDTAVYYCARGAAMVWLDYWGQGTLVTVSS VL: QSALTQPRSVSGSPGQSVTISCTGTSSDVGGYNYVSWYQQHPGKAPKLMIYDVSKRPSGVPDRFSGSKSGNTASLTISGLQAEDEADYYCCSYAGSYTFVVFGGGTKLTVLG — recorded Neutralizing activity (%) Mean at 1.851852 µg/ml = 35.4

Entry P2A-1A9 (antibody, V domains shown) VH: EVQLVESGGGLVQPGRSLRLSCAASGFTFDDYAMHWVRQVPGKGLEWVSGISWNGGIIGYADSVKGRFTISRDNAKTSLYLQMNSLRAEDTALYYCAKVAGRGDYDYYYGMDVWGQGTTVTVSS VL: QSVLTQPPSVSGAPGQRVTISCTGSSSNIGAGYDVHWYQQLPGTAPKLLIYGNNNRPSGVPDRFSGSKSGTSASLAITGLQAEDEADYYCQSYDSSLSGSVFGGGTKLTVLG — recorded Neutralizing activity (%) Mean at 1.851852 µg/ml = 15.9

Entry P2B-2G11 (antibody, V domains shown) VH: EVQLVESGGGLVQPGRSLRLSCAASGFTFDDYAMHWVRQAPGKGLEWVSGISWNGGIIGYADSVKGRFTISRDNAKTSLYLQMNSLKPEDTALYYCAKVAGRGDYDYYYGMDVWGQGTTVTVSS VL: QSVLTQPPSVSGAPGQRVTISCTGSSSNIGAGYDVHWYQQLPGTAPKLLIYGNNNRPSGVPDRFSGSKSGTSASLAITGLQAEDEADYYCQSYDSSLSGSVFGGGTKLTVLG — recorded Neutralizing activity (%) Mean at 1.851852 µg/ml = 16
